- TARGET_OF_ASSAY: Kynurenine 3-monooxygenase (Rattus norvegicus) (UniProt O88867)
- Sequence (O88867 whole entry, looked up): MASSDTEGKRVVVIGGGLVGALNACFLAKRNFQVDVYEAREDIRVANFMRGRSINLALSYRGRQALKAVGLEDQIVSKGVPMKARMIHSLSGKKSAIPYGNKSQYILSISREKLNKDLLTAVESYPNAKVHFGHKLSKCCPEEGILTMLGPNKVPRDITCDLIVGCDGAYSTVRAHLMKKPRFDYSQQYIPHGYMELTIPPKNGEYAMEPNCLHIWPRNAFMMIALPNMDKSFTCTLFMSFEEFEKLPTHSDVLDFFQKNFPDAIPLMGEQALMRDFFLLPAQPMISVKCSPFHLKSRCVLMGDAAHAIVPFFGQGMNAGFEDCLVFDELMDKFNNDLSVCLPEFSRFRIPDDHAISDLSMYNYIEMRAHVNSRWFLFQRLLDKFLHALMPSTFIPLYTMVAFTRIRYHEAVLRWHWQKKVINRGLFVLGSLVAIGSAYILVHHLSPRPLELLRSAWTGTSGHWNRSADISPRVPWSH
- METHOD_NOTES: Inhibition of Kynurenine-3-hydroxylase enzyme isolated from the rat liver at 10 uM
READOUT: inhibition (%)

{"SMILES_ENTRY": "COC(=O)C(=N)/C=C(\\O)c1ccc(Cl)c(C)c1", "TARGET_OF_ASSAY": "Kynurenine 3-monooxygenase (Rattus norvegicus) (UniProt O88867)", "SCALE_UNIT": "%", "inhibition": 0}
{"SMILES_ENTRY": "COC(=O)C(=O)/C=C(\\O)c1ccccc1[N+](=O)[O-]", "TARGET_OF_ASSAY": "Kynurenine 3-monooxygenase (Rattus norvegicus) (UniProt O88867)", "SCALE_UNIT": "%", "inhibition": 1}
{"SMILES_ENTRY": "O=C(O)C(=O)/C=C(\\O)c1cccc(Cl)c1Cl", "TARGET_OF_ASSAY": "Kynurenine 3-monooxygenase (Rattus norvegicus) (UniProt O88867)", "SCALE_UNIT": "%", "inhibition": 33}
{"SMILES_ENTRY": "O=C(O)C(=O)/C=C(\\O)c1ccccc1Cl", "TARGET_OF_ASSAY": "Kynurenine 3-monooxygenase (Rattus norvegicus) (UniProt O88867)", "SCALE_UNIT": "%", "inhibition": 33}
{"SMILES_ENTRY": "COC(=O)C(=N)/C=C(\\O)c1ccc(Cl)cc1", "TARGET_OF_ASSAY": "Kynurenine 3-monooxygenase (Rattus norvegicus) (UniProt O88867)", "SCALE_UNIT": "%", "inhibition": 13}

a = COC(=O)C(=N)/C=C(\O)c1ccc(Br)cc1
b = O=C(O)C(=O)/C=C(\O)c1ccccc1[N+](=O)[O-]
c = COC(=O)C(=N)/C=C(\O)c1ccc(F)cc1
d = COC(=O)C(=N)/C=C(\O)c1ccccc1
e = COC(=O)C(=O)/C=C(/O)c1ccc(C)cc1
Reorder the items by inhibition, least to greatest. API: response body holds the labels in the requested order.
a, c, d, e, b
(a: 0%, c: 1%, d: 3%, e: 12%, b: 24%)

a = O=C(O)C(=O)/C=C(\O)c1ccccc1
b = COC(=O)C(=O)/C=C(\O)c1ccccc1
c = COC(=O)C(=N)/C=C(\O)c1cccc(Cl)c1Cl
d = COC(=O)C(=O)/C=C(\O)c1cccc(Cl)c1Cl
e = COC(=O)C(=N)/C=C(\O)c1ccc(F)c(Cl)c1
Rank order required: inhibition, descending. API: response body holds the labels in the requested order.
c, b, d, e, a

A = COC(=O)C(=N)/C=C(\O)c1cccc(Br)c1
B = N/C(=C\C(=O)c1cccc(Cl)c1Cl)C(=O)O
Consider entries A and B . Which has the numerically lower inhibition? Your answer should be the label of the entry you select.
A
(A: 0%, B: 32%)

P = COC(=O)C(=N)/C=C(\O)c1cccc(F)c1
Q = COC(=O)C(=O)/C=C(\O)c1ccccc1Cl
Pick the one with the larger inhibition: P vs Q Your answer should be the label of the entry you select.
Q
